tested_target: Human immunodeficiency virus type 1 integrase (Human immunodeficiency virus 1)
Sequence (Q7ZJM1 whole entry): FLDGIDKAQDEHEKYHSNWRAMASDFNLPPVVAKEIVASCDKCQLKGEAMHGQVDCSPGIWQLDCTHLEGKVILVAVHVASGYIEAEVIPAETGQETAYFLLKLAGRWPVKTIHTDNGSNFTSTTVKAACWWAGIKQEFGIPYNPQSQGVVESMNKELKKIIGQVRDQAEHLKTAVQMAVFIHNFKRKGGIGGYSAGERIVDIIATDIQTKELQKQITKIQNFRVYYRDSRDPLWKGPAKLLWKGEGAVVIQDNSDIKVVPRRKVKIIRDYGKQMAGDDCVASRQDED
protocol_description: Inhibitory activity against 3' processing by HIV integrase
Please respond with reported pIC50 for every item in the list.
Give bare numbers, as −log10 of the molar value.

{"molecule": "CC(=O)C(/N=N/c1ccc(S(=O)(=O)Nc2ccccn2)cc1)C(=O)Nc1ccccc1C (stereo not given)", "pIC50": 4.18}
{"molecule": "Cc1cc(S(=O)(=O)Nc2nnc3ccccn23)c(S)cc1Cl", "pIC50": 3.91}
{"molecule": "Cc1cc(C(F)(F)F)cc(-n2nc(NS(=O)(=O)c3cc(C)c(Cl)cc3S)nc2N)n1", "pIC50": 5.03}
{"molecule": "Cc1cc(S(=O)(=O)Nc2nnc3cc(C(F)(F)F)cc(C)n23)c(S)cc1Cl", "pIC50": 4.73}
{"molecule": "COc1cccc(Nc2n[nH]c(NS(=O)(=O)c3cc(C)c(Cl)cc3S)n2)c1", "pIC50": 5.20}
{"molecule": "Cc1cc(S(=O)(=O)Nc2nc(N)n(-c3ccccn3)n2)c(S)cc1Cl", "pIC50": 4.84}

Give pIC50 for each listed item.
1. Cc1cc(S(=O)(=O)Nc2n[nH]c(-c3ccc(Cl)cn3)n2)c(S)cc1Cl
2. COc1ccc(Nc2n[nH]c(NS(=O)(=O)c3cc(C)c(Cl)cc3S)n2)cc1

1: 5.05; 2: 4.81

Give pIC50 for each listed item.
1. CC(=O)Oc1cc(S(=O)(=O)Nc2nnc(Nc3ccc(C)cc3)[nH]2)c(S)cc1Cl
2. CC(C)Cn1cnnc1NS(=O)(=O)c1cc(C(=O)Nc2ccc(Cl)cc2)c(Cl)cc1S
3. Cc1cnc(NS(=O)(=O)c2ccc(/N=N/c3cc4ccccc4cc3O)cc2)s1
4. Cc1cc(S(=O)(=O)Nc2nc3ccccc3nc2-c2ccc(Br)cc2)c(S)cc1Cl
5. Cc1cc(S(=O)(=O)NC(=NN)NNc2cccc(C(F)(F)F)n2)c(S)cc1Cl
6. O=S(=O)(Nc1nnc2c3ccccc3cnn12)c1ccc(Cl)cc1S
7. CCCCn1cnnc1NS(=O)(=O)c1cc(C(=O)Nc2ccc(C)cc2)c(Cl)cc1S

[5.12, 4.42, 4.41, 4.91, 4.06, 4.54, 4.22]

Give pIC50 for each listed item.
1. Cc1cc(S(=O)(=O)Nc2nc3ccccc3nc2-c2ccc(Cl)cc2)c(S)cc1Cl
2. Cc1cc(S(=O)(=O)Nc2nc(N)n(-c3ccccc3)n2)c(S)cc1Cl

1. 4.70
2. 4.97

Give pIC50 for each listed item.
1. CCCn1cnnc1NS(=O)(=O)c1cc(C(=O)Nc2ccc(C)cc2)c(Cl)cc1SCC(=O)O
2. Cc1cc2c(cc1Cl)SC(C(C#N)C#N)NS2(=O)=O (stereo not given)
3. CCC(C)n1cnnc1NS(=O)(=O)c1cc(C(=O)Nc2ccc(C)cc2)c(Cl)cc1S (stereo not given)

4.36
3.15
3.70
